Target under test: native state (Fe3+) of hMPO (Homo sapiens)
Construct: purchased Athens Research and Technology
Sequence (P05164 49-745): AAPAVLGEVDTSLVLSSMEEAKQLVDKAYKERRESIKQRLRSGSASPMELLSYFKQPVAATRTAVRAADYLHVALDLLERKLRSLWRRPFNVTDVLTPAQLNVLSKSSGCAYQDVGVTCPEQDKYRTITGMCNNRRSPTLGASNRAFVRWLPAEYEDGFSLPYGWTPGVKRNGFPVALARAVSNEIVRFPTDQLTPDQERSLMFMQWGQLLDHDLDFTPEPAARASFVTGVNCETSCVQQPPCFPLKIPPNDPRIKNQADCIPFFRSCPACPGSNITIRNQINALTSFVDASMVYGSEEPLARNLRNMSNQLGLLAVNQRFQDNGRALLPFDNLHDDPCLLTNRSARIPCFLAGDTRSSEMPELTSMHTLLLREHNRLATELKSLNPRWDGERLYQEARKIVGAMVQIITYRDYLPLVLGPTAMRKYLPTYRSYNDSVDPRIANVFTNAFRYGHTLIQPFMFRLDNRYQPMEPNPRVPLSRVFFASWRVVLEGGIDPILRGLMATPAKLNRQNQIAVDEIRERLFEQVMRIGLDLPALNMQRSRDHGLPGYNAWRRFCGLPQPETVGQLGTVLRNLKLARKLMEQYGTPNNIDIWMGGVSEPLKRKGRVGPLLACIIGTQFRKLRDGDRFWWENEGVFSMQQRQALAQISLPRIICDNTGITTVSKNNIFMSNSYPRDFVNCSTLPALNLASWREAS
Method notes: Low temperature ESR binding assay (binding-induced g shift, Rrelative)
Setup conditions: electronic g value of the bound complex, X-band ESR, 5 K
Measurement type: g Y

Exam item: Recorded g Y for O=C(O)c1nn(-c2cccc3ccccc23)cc1O [LSN2944556] , please?
Marked response: 4.7601

Exam item: Recorded g Y for O=[N+]([O-])c1c(O)ncnc1O [LSN106019] , please?
Marked response: 4.713

Exam item: Recorded g Y for O=C(O)c1nn(-c2ccccc2)cc1O [LSN17948] , please?
Marked response: 4.739

Exam item: Recorded g Y for Sc1nnc(-c2cccnc2)o1 [LSN811183] , please?
Marked response: 4.809

Exam item: Recorded g Y for Cc1cc(C(F)(F)F)c(C#N)c(=O)[nH]1 [LSN131429] , please?
Marked response: 5.215

Exam item: Recorded g Y for Fc1ccccc1-c1n[nH]c(=S)o1 [LSN2303506] , please?
Marked response: 4.799

Exam item: Recorded g Y for O=C(O)c1n[nH]c(-c2ccccc2)c1O [LSN87637] , please?
Marked response: 4.827

Exam item: Recorded g Y for O=C(O)c1n[nH]c2ccccc12 [LSN23500] , please?
Marked response: 4.914

====

Target under test: Human Myeloperoxidase (Homo sapiens, UniProt P05164)
Construct: purchased Lee Biosciences 426-10
Method notes: X-ray co-crystal growth by soaking MPO crystals with inhibitor
Setup conditions: crystals soaked with 50 mM inhibitor
Measurement type: X ray Cocrystal result

Known X ray Cocrystal result results, listed for orientation:
Exam item: Recorded X ray Cocrystal result for Cc1cc(O)nc2[nH]nc(O)c12 [LSN66421] , please?
Marked response: No

Exam item: Recorded X ray Cocrystal result for O=C(NO)c1ccccc1O [LSN13243] , please?
Marked response: Yes

Exam item: Recorded X ray Cocrystal result for S=c1[nH]nc(-c2ccncc2)o1 [LSN19450] , please?
Marked response: No

Exam item: Recorded X ray Cocrystal result for Cc1cc(C)c2c(O)n[nH]c2n1 [LSN42503] , please?
Marked response: No

Exam item: Recorded X ray Cocrystal result for Sc1nnc(-c2cccnc2)o1 [LSN811183] , please?
Marked response: Yes

Exam item: Recorded X ray Cocrystal result for Fc1ccccc1-c1n[nH]c(=S)o1 [LSN2303506] , please?
Marked response: Yes

Continuing:
Exam item: Recorded X ray Cocrystal result for O=C1CC(c2ccc(Cl)cc2)=NN1 [LSN34893] , please?
Marked response: No

Exam item: Recorded X ray Cocrystal result for O=C(O)c1nn(-c2cccc3ccccc23)cc1O [LSN2944556] , please?
Marked response: Yes

Exam item: Recorded X ray Cocrystal result for Cc1c(N)n[nH]c1-c1ccccc1 [LSN27223] , please?
Marked response: No

Exam item: Recorded X ray Cocrystal result for Oc1nnc(-c2ccccc2)s1 [LSN227931] , please?
Marked response: No

Exam item: Recorded X ray Cocrystal result for O=C(O)c1n[nH]c2ccccc12 [LSN23500] , please?
Marked response: No

====

Data export: IC50 values recorded with hMPO (Homo sapiens).
Measurement type: IC50 (nM)

Exam item: Lab note: need IC50 with hMPO (Homo sapiens) for entry Cc1cc(C)c2c(O)n[nH]c2n1 [LSN42503] , please look it up.
Marked response: 168

[1] O=C(O)c1nn(-c2cccc3ccccc23)cc1O [LSN2944556]
[2] Oc1nnc(-c2ccccc2)s1 [LSN227931]
Exam item: Could you tell me which of these two has the smaller IC50 figure? First: 1 Second: 2 Identify your selection by its label.
Marked response: 1

====

Target under test: native state (Fe3+) of hMPO (Homo sapiens, UniProt P05164)
Construct: purchased Athens Research and Technology
Sequence (P05164 49-745): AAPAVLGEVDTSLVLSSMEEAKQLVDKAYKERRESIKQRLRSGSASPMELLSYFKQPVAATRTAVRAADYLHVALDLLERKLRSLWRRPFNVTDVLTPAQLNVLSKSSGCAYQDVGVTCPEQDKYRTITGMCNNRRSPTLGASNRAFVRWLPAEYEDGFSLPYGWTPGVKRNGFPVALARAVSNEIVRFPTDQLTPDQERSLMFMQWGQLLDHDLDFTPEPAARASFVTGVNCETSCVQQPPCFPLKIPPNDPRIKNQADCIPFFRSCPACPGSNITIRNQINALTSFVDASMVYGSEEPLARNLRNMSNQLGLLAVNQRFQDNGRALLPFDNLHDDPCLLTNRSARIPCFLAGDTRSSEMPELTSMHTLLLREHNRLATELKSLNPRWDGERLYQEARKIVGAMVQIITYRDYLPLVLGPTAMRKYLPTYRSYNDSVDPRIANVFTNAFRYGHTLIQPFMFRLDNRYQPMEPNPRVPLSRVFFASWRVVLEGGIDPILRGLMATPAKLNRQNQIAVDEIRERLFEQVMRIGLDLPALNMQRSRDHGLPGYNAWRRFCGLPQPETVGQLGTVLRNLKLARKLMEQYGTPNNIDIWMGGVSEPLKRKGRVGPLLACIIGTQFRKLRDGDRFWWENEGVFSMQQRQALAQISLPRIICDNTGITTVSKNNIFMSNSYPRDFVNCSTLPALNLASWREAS
Method notes: Low temperature ESR binding assay (binding-induced g shift, Rrelative)
Setup conditions: absolute difference between g X and g Y of the bound complex
Procedure: After 5-min. incubation at room temperature, the entire reaction mixture (0.235 mL) was transferred to the ESR quartz tubes. To avoid the quartz tubes breaking during the rapid freezing cycles, the ESR tubes were initially frozen in a 1:1 Isopentane-Cyclohexane mixture cooled with dry ice powder and then transferred to a liquid nitrogen Dewar to be queued up for ESR measurements. […] ESR spectra were recorded on a Varian E-12, X-band spectrometer equipped with an Air Products liquid helium cryostat. […]
Measurement type: Δg

Exam item: Recorded Δg for O=C(O)c1n[nH]c2ccccc12 , please?
Marked response: 1.875

[1] O=C(O)c1nn(-c2ccccc2)cc1O
[2] Cc1cc(C(F)(F)F)c(C#N)c(=O)[nH]1
Exam item: Please state the entry with greater Δg among 1 and 2 . Identify your selection by its label.
Marked response: 1

====

Target under test: native state (Fe3+) of hMPO (Homo sapiens)
Construct: purchased Athens Research and Technology
Sequence (P05164 49-745): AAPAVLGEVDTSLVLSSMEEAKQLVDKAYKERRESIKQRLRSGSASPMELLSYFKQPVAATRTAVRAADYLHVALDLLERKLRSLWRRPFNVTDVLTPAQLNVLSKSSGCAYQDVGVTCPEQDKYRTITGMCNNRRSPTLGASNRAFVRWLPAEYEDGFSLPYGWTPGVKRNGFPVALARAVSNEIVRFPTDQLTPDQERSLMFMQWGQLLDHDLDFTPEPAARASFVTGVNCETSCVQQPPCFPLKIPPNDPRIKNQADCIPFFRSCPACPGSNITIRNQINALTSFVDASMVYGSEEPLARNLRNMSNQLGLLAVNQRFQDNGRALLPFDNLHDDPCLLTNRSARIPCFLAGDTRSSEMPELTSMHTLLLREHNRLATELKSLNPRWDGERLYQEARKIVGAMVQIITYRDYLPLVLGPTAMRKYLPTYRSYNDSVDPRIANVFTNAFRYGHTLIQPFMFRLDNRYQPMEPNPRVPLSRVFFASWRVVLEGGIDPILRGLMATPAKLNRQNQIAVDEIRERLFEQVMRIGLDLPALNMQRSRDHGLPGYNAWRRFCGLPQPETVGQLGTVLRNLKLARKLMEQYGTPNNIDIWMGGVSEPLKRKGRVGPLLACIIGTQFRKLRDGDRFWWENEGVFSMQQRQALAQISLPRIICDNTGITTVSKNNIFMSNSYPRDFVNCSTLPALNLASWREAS
Method notes: Low temperature ESR binding assay (binding-induced g shift, Rrelative)
Setup conditions: Rrelative = (Rbound - Rnative)/Rnative x 100; inhibitor:MPO 40:1, pH 6, 6 % DMSO, 4-7 K
Measurement type: ESR Rrelative

Known ESR Rrelative results, listed for orientation:
Exam item: Lab note: need ESR Rrelative with native state (Fe3+) of hMPO (Homo sapiens) for entry Cc1c(N)n[nH]c1-c1ccccc1 , please look it up.
Marked response: 3.3

Exam item: Lab note: need ESR Rrelative with native state (Fe3+) of hMPO (Homo sapiens) for entry S=c1[nH]nc(-c2ccncc2)o1 , please look it up.
Marked response: 0

Exam item: Lab note: need ESR Rrelative with native state (Fe3+) of hMPO (Homo sapiens) for entry O=[N+]([O-])c1c(O)ncnc1O , please look it up.
Marked response: 29.2

Exam item: Lab note: need ESR Rrelative with native state (Fe3+) of hMPO (Homo sapiens) for entry Oc1nnc(-c2ccccc2)s1 , please look it up.
Marked response: 0.2

Exam item: Lab note: need ESR Rrelative with native state (Fe3+) of hMPO (Homo sapiens) for entry Cc1cc(C)c2c(O)n[nH]c2n1 , please look it up.
Marked response: 0.3

[a] Sc1nnc(-c2cccnc2)o1
[b] Cc1cc(O)nc2[nH]nc(O)c12
[c] NC(=O)c1n[nH]cc1O
[d] O=C(O)c1nn(-c2cccc3ccccc23)cc1O
[e] Cc1cc(C(F)(F)F)c(C#N)c(=O)[nH]1
Exam item: Order by ESR Rrelative, ascending. Please list the labels according to the requested order.
Marked response: e, c, b, a, d

[A] O=C1CC(c2ccc(Cl)cc2)=NN1
[B] O=C(NO)c1ccccc1O
[C] O=C(O)c1nn(-c2ccccc2)cc1O
Exam item: Descending sort on ESR Rrelative required. Please list the labels according to the requested order.
Marked response: C, B, A
(C: 24.2, B: 14.7, A: 0.2)

[A] O=C(O)c1n[nH]c(-c2ccccc2)c1O
[B] Oc1n[nH]c2c1CCC2
Exam item: Please state the entry with greater ESR Rrelative among A and B . Identify your selection by its label.
Marked response: A
(A: 14.1, B: 0.2)

[P] Fc1ccccc1-c1n[nH]c(=S)o1
[Q] O=C(O)c1n[nH]c2ccccc12
Exam item: Please state the entry with greater ESR Rrelative among P and Q . Identify your selection by its label.
Marked response: P
